Hello, the source for this data is ChEMBL document CHEMBL1140214, in case you need it.

assay: Antitumor activity against human CNS cancer cells after 48 hrs by SRB assay; type: functional, Cancer cell lines; conditions: Homo sapiens, Cancer cell lines, 48 h; read-out: pTGI (converted)
Provide the reported TGI of each item.
Report the value in µM with no unit label.

Inquiry: Assign TGI to the following record: "COc1ccc2c(c1)/C(=C\c1c(-c3cc(OC)ccc3OC)nc3sc(C)cn13)C(=O)N2C"
Reply text: 74.1

Inquiry: Look up TGI of "Cc1cn2c(/C=C3/C(=O)N(C)c4ccc(Cl)cc43)c(C)nc2s1" and report it.
Reply text: 28.8

Inquiry: Recall and state the measured TGI for "Cc1cn2c(/C=C3/C(=O)N(C)c4ccc(O)cc43)c(C)nc2s1" .
Reply text: 37.2

Inquiry: Please report TGI for the following compound: "Cc1cn2c(/C=C3/C(=O)Nc4ccc(F)cc43)c(C)nc2s1"
Reply text: 33.1

Inquiry: Query TGI for CC[C@]1(O)C[C@H]2CN(CCc3c([nH]c4ccccc34)[C@@](C(=O)OC)(c3cc4c(cc3OC)N(C=O)[C@H]3[C@@](O)(C(=O)OC)[C@H](OC(C)=O)[C@]5(CC)C=CCN6CC[C@]43[C@@H]65)C2)C1.O=S(=O)(O)O [VINCRISTINE SULFATE]
Reply text: 6.31

Inquiry: Please give measured TGI of the following entry: "Cc1ccc(-c2nc3sc(C)cn3c2/C=C2/C(=O)Nc3ccc(Cl)cc32)cc1"
Reply text: 20.4

Inquiry: Report TGI for "Cc1cn2c(/C=C3/C(=O)Nc4ccccc43)c(-c3ccc(Cl)cc3)nc2s1"
Reply text: 15.1

Inquiry: Output TGI of "Cc1cn2c(/C=C3/C(=O)Nc4ccc(O)cc43)c(-c3ccc(Cl)cc3)nc2s1"
Reply text: 35.5

====

test: Antitumor activity against human Breast cancer cells after 48 hrs by SRB assay; format: functional, Cancer cell lines
Could you label it 1 if measured GI is 20 µM or higher, and 0 otherwise?

Inquiry: Hello, I need to know if "Cc1nn2c(/C=C3/C(=O)Nc4ccccc43)c(C)nc2s1" has measured GI not below 20 µM. Thanks!
Reply text: 1

Inquiry: # check: GI of "Cc1cn2c(/C=C3/C(=O)Nc4ccc(O)cc43)c(-c3ccc(Cl)cc3)nc2s1" is greater than or equal to 20 µM
Reply text: 0

Inquiry: Decide: is the reported value of GI for "Cc1cn2c(/C=C3/C(=O)N(C)c4ccc(O)cc43)c(C)nc2s1" equal to or greater than 20 µM?
Reply text: 0

Inquiry: hey, is GI for this one >= 20 µM? "Cc1nn2c(/C=C3/C(=O)Nc4ccc(Cl)cc43)c(C)nc2s1"
Reply text: 1

Inquiry: Reported GI at or above 20 µM? "Cc1cn2c(/C=C3/C(=O)Nc4ccc(F)cc43)c(C)nc2s1"
Reply text: 0

Inquiry: Is it the case that "COc1ccc2c(c1)/C(=C\c1c(-c3cc(OC)ccc3OC)nc3sc(C)cn13)C(=O)N2C" has GI reaching or exceeding 20 µM?
Reply text: 1

Inquiry: Can "COc1ccc2c(c1)/C(=C\c1c(C)nc3sc(C)nn13)C(=O)N2" be said to have GI at or above 20 µM?
Reply text: 0

====

experiment: Antitumor activity against human Breast cancer cells after 48 hrs by SRB assay; format: functional, Cancer cell lines
OBSERVED PROPERTY: GI (µM)
Enter your answer as a number in µM; do not include the unit.

Inquiry: Report GI, nothing else, for this compound: "COc1ccc(OC)c(-c2nc3sccn3c2/C=C2/C(=O)N(C)c3ccccc32)c1"
Reply text: 15.85

Inquiry: Annotate the compound "Cc1cn2c(/C=C3/C(=O)N(C)c4ccccc43)c(C)nc2s1" with its measured GI.
Reply text: 5.5

Inquiry: For the compound "Cc1cn2c(/C=C3/C(=O)Nc4ccccc43)c(-c3ccc(Cl)cc3)nc2s1" , give its measured GI value.
Reply text: 6.46

Inquiry: Return the recorded GI value; entry: "Cc1nn2c(/C=C3/C(=O)Nc4ccccc43)c(-c3ccc(Cl)cc3)nc2s1"
Reply text: 16.98

Inquiry: Provide measured GI value, entry: "Cc1cn2c(/C=C3/C(=O)N(C)c4ccc(Cl)cc43)c(C)nc2s1"
Reply text: 6.76
